Source: the supplement of paper PMC9732359

Assay: protein stability index of a GFP-peptide fusion (yeast GPS) (PSI 1-4); higher = more stable; sorted into four equal gates, so the index is relative within each strain
Details: doa10∆
Collected protein stability index values appear next to each entry.

Below are worked cases with known answers.
NRQTLMFTATMTPVIEK [PRP28] : 2.56
ELLEERFQDSNPYVRTK [YCS4] : 1.48

Exam item: May I ask what protein stability index has been recorded for KPWFATVNGQARDLATM [FAS1] ?
Marked response: 3.01

Exam item: Moving on to SNPSGNYTGWKAISVGA [PRE9]
Marked response: 1.89

Exam item: And then RDRKLITDKGTVDGRLY [YJL039C/NUP192] , what is it?
Marked response: 3.16
